biological target: human CB1 receptor (Homo sapiens, UniProt P21554); construct: expressed in transfected cells; host or cells: HEK293; assay: bioSensAll β-arrestin2 plasma membrane translocation (+GRK2) BRET biosensor assay in HEK293 cells transfected with hCB1; test compound added before EC75-80 of agonist CP55,940 (100 nM); assay type: cell-based; conditions: βArrestin2 (+GRK2) BRET biosensor, vs CP55,940 100 nM (EC75-80), read-out: CB1 wt βarr2 IC50
Sequence (P21554 whole entry): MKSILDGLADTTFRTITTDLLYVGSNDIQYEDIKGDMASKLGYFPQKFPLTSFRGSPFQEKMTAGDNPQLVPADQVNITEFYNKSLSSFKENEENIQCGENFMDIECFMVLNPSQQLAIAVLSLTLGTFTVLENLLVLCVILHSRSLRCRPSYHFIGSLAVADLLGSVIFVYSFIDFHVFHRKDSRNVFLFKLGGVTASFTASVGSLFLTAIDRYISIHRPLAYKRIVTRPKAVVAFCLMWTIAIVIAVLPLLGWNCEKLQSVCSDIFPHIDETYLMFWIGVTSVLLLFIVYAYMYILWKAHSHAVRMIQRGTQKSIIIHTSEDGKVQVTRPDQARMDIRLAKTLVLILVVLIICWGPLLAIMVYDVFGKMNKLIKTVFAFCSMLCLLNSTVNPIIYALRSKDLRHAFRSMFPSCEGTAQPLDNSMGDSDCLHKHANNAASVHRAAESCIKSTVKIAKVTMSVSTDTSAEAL
pIC50: −log10 of the molar value.
Each entry below carries its reported pIC50.
REPORTED_METRIC: pIC50

- COMPOUND: "CN(CCO)c1nc(N2CC(C)(C#N)C2)c2nc(-c3ccccc3Cl)n(-c3ccc(Cl)cc3)c2n1"
  RESULT_VALUE: 9.08
- COMPOUND: "CC(C)(O)COc1nc(N2C[C@@H]3C[C@H]2CO3)c2nc(-c3ccccc3Cl)n(-c3ccc(Cl)cc3)c2n1"
  RESULT_VALUE: 7.78
- COMPOUND: "CC1(C(N)=O)CCN(c2nc(N3CC[C@@H](O)C3)nc3c2nc(-c2ccccc2Cl)n3-c2ccc(Cl)cc2)CC1"
  RESULT_VALUE: 8.84
- COMPOUND: "CC1(C(N)=O)CCN(c2nc(OC3CCCOC3)nc3c2nc(-c2ccccc2Cl)n3-c2ccc(Cl)cc2)CC1 (stereo not shown)"
  RESULT_VALUE: 8.62

====

molecular target: human CB1 receptor (Homo sapiens); construct: expressed in transfected cells; host or cells: HEK293; test: bioSensAll β-arrestin2 plasma membrane translocation (+GRK2) BRET biosensor assay in HEK293 cells transfected with hCB1; test compound added before EC75-80 of agonist CP55,940 (100 nM); assay type: cell-based; conditions: βArrestin2 (+GRK2) BRET biosensor, vs CP55,940 100 nM (EC75-80), read-out: CB1 wt βarr2 IC50
Lab note: compare IC50 with 20 nM, writing yes if less and no if equal or more.

- COMPOUND: "CN1C[C@H](Oc2nc(N3CCC(C)(C(N)=O)CC3)c3nc(-c4ccccc4Cl)n(-c4ccc(Cl)cc4)c3n2)C[C@H]1CO"
  QUALITATIVE_LABEL: "no"
- COMPOUND: "CN(CCO)c1nc(N2CCC3(CCNC3=O)CC2)c2nc(-c3ccccc3Cl)n(-c3ccc(Cl)cc3)c2n1"
  QUALITATIVE_LABEL: "yes"
- COMPOUND: "CN1C[C@H](F)C[C@H]1COc1nc(N2CCC(C)(C(N)=O)CC2)c2nc(-c3ccccc3Cl)n(-c3ccc(Cl)cc3)c2n1 [Compound 228]"
  QUALITATIVE_LABEL: "yes"
- COMPOUND: "CC(C)(O)COc1nc(N2CC3CCC(C2)O3)c2nc(-c3ccccc3Cl)n(-c3ccc(Cl)cc3)c2n1"
  QUALITATIVE_LABEL: "yes"
- COMPOUND: "CCNC1(C(N)=O)CCN(c2nc(C(N)=O)nc3c2nc(-c2ccccc2Cl)n3-c2ccc(Cl)cc2)CC1"
  QUALITATIVE_LABEL: "no"
- COMPOUND: "CC(CO)Oc1nc(N2CCC(C(F)(F)F)CC2)c2nc(-c3ccccc3Cl)n(-c3ccc(Cl)cc3)c2n1 (single isomer, unassigned)"
  QUALITATIVE_LABEL: "yes"

====

target: human CB1 receptor (Homo sapiens, UniProt P21554); construct: expressed in transfected cells; host or cells: HEK293; assay: bioSensAll GAPL-Gi2 BRET biosensor assay in HEK293 cells transfected with hCB1; test compound added before EC75-80 of agonist CP55,940 (0.1 nM); format: cell-based; conditions: vs CP55,940 0.1 nM (EC75-80), read-out: CB1 wt Gi2 IC50
Lab note: compare IC50 with 0.9 nM, writing y if less and n if equal or more.

- MOLECULE: "CCOC1(C(N)=O)CCN(c2nc(N3CCC[C@H]3CO)nc3c2nc(-c2ccc(C#N)nc2)n3-c2ccc(Cl)cc2)CC1 [Compound 133]"
  QUALITATIVE_LABEL: "y"
- MOLECULE: "CC1(C(N)=O)CCN(c2nc(N3CC[C@H](O)C3)nc3c2nc(-c2ccccc2Cl)n3-c2ccc(Cl)cc2)CC1 [Compound 94]"
  QUALITATIVE_LABEL: "y"
- MOLECULE: "CC(C)OC1(C(N)=O)CCN(c2nc(N3CCC[C@H]3CO)nc3c2nc(-c2ccc(C#N)nc2)n3-c2ccc(Cl)cc2)CC1 [Compound 136]"
  QUALITATIVE_LABEL: "y"
- MOLECULE: "CC1(C(N)=O)CCN(c2nc(NCCO)nc3c2nc(-c2ccccc2Cl)n3-c2ccc(Cl)cc2)CC1 [Compound 56]"
  QUALITATIVE_LABEL: "y"
- MOLECULE: "CN(CCO)c1nc(N2CCC(C)(C(N)=O)CC2)c2nc(-c3cncn3C)n(-c3ccc(Cl)cc3)c2n1 [Compound 58]"
  QUALITATIVE_LABEL: "n"
- MOLECULE: "CN(CCO)c1nc(N2CCC(C)(C(N)=O)CC2)c2nc(-c3ccc(C#N)nc3)n(-c3ccc(Cl)cc3)c2n1 [Compound 65]"
  QUALITATIVE_LABEL: "y"
- MOLECULE: "C[C@@H]1COCCN1c1nc(OCC(C)(C)O)nc2c1nc(-c1ccccc1Cl)n2-c1ccc(Cl)cc1 [Compound 212]"
  QUALITATIVE_LABEL: "n"
- MOLECULE: "C[C@H]1COCCN1c1nc(OCC(C)(C)O)nc2c1nc(-c1ccccc1Cl)n2-c1ccc(Cl)cc1 [Compound 211]"
  QUALITATIVE_LABEL: "n"
- MOLECULE: "CCNC1(C(N)=O)CCN(c2nc(NC(C)=O)nc3c2nc(-c2ccccc2Cl)n3-c2ccc(Cl)cc2)CC1 [Compound 145]"
  QUALITATIVE_LABEL: "n"
- MOLECULE: "CC1(C(N)=O)CCN(c2nc(-n3cnc(CCO)c3)nc3c2nc(-c2ccccc2Cl)n3-c2ccc(Cl)cc2)CC1 [Compound 47]"
  QUALITATIVE_LABEL: "n"
- MOLECULE: "CC(=O)NC(=N)Nc1nc(N2CCC(C)(C(N)=O)CC2)c2nc(-c3ccccc3Cl)n(-c3ccc(Cl)cc3)c2n1 [Compound 18]"
  QUALITATIVE_LABEL: "n"
- MOLECULE: "CC1(C(N)=O)CCN(c2nc(N3CCC[C@@H]3CO)nc3c2nc(-c2ccccc2Cl)n3-c2ccc(Cl)cc2)CC1 [Compound 13]"
  QUALITATIVE_LABEL: "n"
- MOLECULE: "CC1(C(N)=O)CCN(c2nc(-n3cnc(CO)c3)nc3c2nc(-c2ccccc2Cl)n3-c2ccc(Cl)cc2)CC1 [Compound 46]"
  QUALITATIVE_LABEL: "n"
- MOLECULE: "CC1(C(N)=O)CCN(c2nc(N3CCNC[C@H]3CO)nc3c2nc(-c2ccccc2Cl)n3-c2ccc(Cl)cc2)CC1 [Compound 5]"
  QUALITATIVE_LABEL: "n"
- MOLECULE: "CC(C)Nc1nc(OCC(C)(C)O)nc2c1nc(-c1ccccc1Cl)n2-c1ccc(Cl)cc1 [Compound 87]"
  QUALITATIVE_LABEL: "n"
- MOLECULE: "CC1(C(N)=O)CCN(c2nc(N3CCC[C@H]3CO)nc3c2nc(-c2ccc(C#N)cc2)n3-c2ccc(Cl)cc2)CC1 [Compound 36]"
  QUALITATIVE_LABEL: "y"
- MOLECULE: "CC(C)(O)COc1nc(NCC(N)=O)c2nc(-c3ccccc3Cl)n(-c3ccc(Cl)cc3)c2n1 [Compound 100]"
  QUALITATIVE_LABEL: "n"
- MOLECULE: "FC(F)(F)C1CCN(c2nc(OCCNCc3ccccc3)nc3c2nc(-c2ccccc2Cl)n3-c2ccc(Cl)cc2)CC1 [Compound 62]"
  QUALITATIVE_LABEL: "n"
- MOLECULE: "Cc1ccncc1-c1nc2c(N3CCC(C)(C(N)=O)CC3)nc(OCC(C)(C)O)nc2n1-c1ccc(Cl)cc1 [Compound 105]"
  QUALITATIVE_LABEL: "n"
- MOLECULE: "CC1(C(N)=O)CCN(c2nc(N3CC[C@@H](O)C3)nc3c2nc(-c2ccccc2Cl)n3-c2ccc(Cl)cc2)CC1 [Compound 93]"
  QUALITATIVE_LABEL: "y"
- MOLECULE: "CC1(C(N)=O)CCN(c2nc(OC[C@@H]3CCCN3)nc3c2nc(-c2ccccc2Cl)n3-c2ccc(Cl)cc2)CC1 [Compound 160]"
  QUALITATIVE_LABEL: "y"
- MOLECULE: "CO[C@@H]1CCN(c2nc(N3CCC(C)(C(N)=O)CC3)c3nc(-c4ccccc4Cl)n(-c4ccc(Cl)cc4)c3n2)C1 [Compound 91]"
  QUALITATIVE_LABEL: "y"
- MOLECULE: "CCOC1(C(N)=O)CCN(c2nc(OCC(C)(C)O)nc3c2nc(-c2ccc(C#N)nc2)n3-c2ccc(Cl)cc2)CC1 [Compound 120]"
  QUALITATIVE_LABEL: "n"
- MOLECULE: "NC(=O)N1CC(Nc2nc(N3CCC[C@H]3CO)nc3c2nc(-c2ccccc2Cl)n3-c2ccc(Cl)cc2)C1 [Compound 175]"
  QUALITATIVE_LABEL: "n"
- MOLECULE: "CC(C)(O)COc1nc(N2CCNCC(F)(F)C2)c2nc(-c3ccccc3Cl)n(-c3ccc(Cl)cc3)c2n1 [Compound 221]"
  QUALITATIVE_LABEL: "n"
- MOLECULE: "CC1(C(N)=O)CCN(c2nc(S(C)(=O)=O)nc3c2nc(-c2ccccc2Cl)n3-c2ccc(Cl)cc2)CC1 [Compound 68]"
  QUALITATIVE_LABEL: "n"
- MOLECULE: "CC(C)(O)COc1nc(N2C[C@H]3C[C@@H]2CO3)c2nc(-c3ccccc3Cl)n(-c3ccc(Cl)cc3)c2n1 [Compound 203]"
  QUALITATIVE_LABEL: "n"
